- Test system: rodent lifetime carcinogenesis bioassay, tumor incidence TD50
- ASSAY_COMMENT: carcinogenic potency in animals, long-term in vivo studies, CPDB compilation (AID 1745844)
- CONDITIONS_USED: mouse; strain B6C3F1; males; in feed; site: liver; lesion: hepatocellular carcinoma; dosed 103 weeks; study length 105 weeks
ASSAY_METRIC: TD50

Provide reported TD50 for each item, in the same order as listed.
1. Nc1cc(S(=O)(=O)[O-])cc2cc(S(=O)(=O)[O-])c(N=Nc3ccc(-c4ccc(N=Nc5c(S(=O)(=O)[O-])cc6cc(S(=O)(=O)[O-])cc(N)c6c5O)c(O)c4)cc3O)c(O)c12.[Cu].[Cu].[Na+].[Na+].[Na+].[Na+]
2. OB(O)O

Resp:
1: 2990 mg/kg/day; 2: 1120 mg/kg/day

====

- Tested on: rodent lifetime carcinogenesis bioassay, tumor incidence TD50
- ASSAY_COMMENT: carcinogenic potency in animals, long-term in vivo studies, CPDB compilation (AID 1745844)
- CONDITIONS_USED: rat; strain Fischer 344; males; in feed; site: spleen; lesion: fibroma; dosed 72 weeks; study length 93 weeks
Answer each item with its documented TD50.

CPD_SMILES: Cc1ccccc1N
TD50: 167 mg/kg/day

Proceed to the following item.
Req: So what's the measured TD50 for this one? Cc1ccccc1N=O
Resp: 87 mg/kg/day

====

- Tested on: rodent lifetime carcinogenesis bioassay, tumor incidence TD50
- ASSAY_COMMENT: carcinogenic potency in animals, long-term in vivo studies, CPDB compilation (AID 1745844)
- CONDITIONS_USED: mouse; strain B6C3F1; females; inhaled; site: lung; lesion: alveolar/bronchiolar adenoma + alveolar/bronchiolar carcinoma; dosed 102 weeks; study length 105 weeks
ASSAY_METRIC: TD50
Please state the value followed by its unit.

Req: Name the recorded TD50 for C=CCOCC1CO1 (stereo unspecified) .
Resp: 123 mg/kg/day

====

- Test system: rodent lifetime carcinogenesis bioassay, tumor incidence TD50
- ASSAY_COMMENT: carcinogenic potency in animals, long-term in vivo studies, CPDB compilation (AID 1745844)
- CONDITIONS_USED: rat; strain Wistar albino; males; in drinking water; site: thyroid gland; lesion: carcinoma; dosed 78 weeks; study length 78 weeks
ASSAY_METRIC: TD50

Req: Look up TD50 with rodent lifetime carcinogenesis bioassay, tumor incidence TD50 for this compound: CCCc1cc(=O)[nH]c(=S)[nH]1
Resp: 79.3 mg/kg/day

====

- Tested on: rodent lifetime carcinogenesis bioassay, tumor incidence TD50
- ASSAY_COMMENT: carcinogenic potency in animals, long-term in vivo studies, CPDB compilation (AID 1745844)
- CONDITIONS_USED: rat; strain Fischer 344; males; i.p.; site: liver; lesion: several types; types named in the paper; dosed 56 weeks; study length 76 weeks
ASSAY_METRIC: TD50

Req: Name the recorded TD50 for C/C=C(/C)C(=O)O[C@H]1CCN2CC=C(COC(=O)[C@@](O)([C@H](C)OC)C(C)(C)O)[C@H]12 .
Resp: 0.341 mg/kg/day

====

- System: rodent lifetime carcinogenesis bioassay, tumor incidence TD50
- ASSAY_COMMENT: carcinogenic potency in animals, long-term in vivo studies, CPDB compilation (AID 1745844)
- CONDITIONS_USED: rat; strain Fischer 344; males; by gavage; site: liver; lesion: several types; types named in the paper; dosed 30 weeks; study length 65 weeks
ASSAY_METRIC: TD50

Req: For the compound CN(C)N=O , what TD50 is on record?
Resp: 0.189 mg/kg/day

Cited source for all entries: PubChem BioAssay AID1745844
